Taken from patent US10544143B2.

Provide the recorded IC50 for the entries that follow.
- TEST_SYSTEM: human TLR9 (Homo sapiens (Human))
- TEST_DESCRIPTION: TLR9 inhibition reporter assay (HEK-Blue SEAP)
- MEASUREMENT_SETUP: read-out: TLR9 IC50; HEK-Blue cells overexpressing human TLR9, ODN2006 5 nM stimulation, SEAP reporter
Answers are plain numbers, in nM.

For every item in the list below, what is its measured IC50?
1. Cc1c(-c2[nH]c3ccc(N4CCC(N(C)Cc5ncnn5C)CC4)nc3c2C(C)C)cn2ncnc2c1C
2. CC(C)c1c(-c2cn(CCS(C)(=O)=O)c3ncccc23)[nH]c2ccc(C3CCC(N4CC5(COC5)C4)CC3)nc12 (stereo not drawn)
3. COc1ncnc(OC)c1CN(Cc1c(OC)ncnc1OC)C1CCN(c2ccc3[nH]c(-c4cn5ncnc5c(C)c4C)c(C(C)C)c3n2)CC1
4. Cc1c(-c2[nH]c3ccc(N4CCN(C5CCOCC5)CC4)nc3c2C(C)C)cn2ncnc2c1C
5. COc1cc(-c2[nH]c3cc(C)c(C4CCC(N)CC4)nc3c2C(C)C)cn2ncnc12 (stereo not drawn) [Example 323]
6. CC(C)c1c(-c2cn(C)c3ncccc23)[nH]c2ccc(N3CC(NC4CCOCC4)C3)nc12 [Example 36]

Key:
42400
100
3900
6400
1360
22100

----------
- TEST_SYSTEM: UniProt Q9NR97
- TEST_DESCRIPTION: TLR8 inhibition reporter assay (HEK-Blue SEAP)
- MEASUREMENT_SETUP: read-out: TLR8 IC50; HEK-Blue cells overexpressing human TLR8, R848 15.9 μM stimulation, SEAP reporter
Provide the recorded pIC50 for the entries that follow.
One number for each entry, as −log10 of the molar value.

Here are 4 compounds together with their reported answers.
COc1cc(-c2[nH]c3cc(C)c(C4CCC(NCC(C)(C)O)CC4)nc3c2C(C)C)cn2ncnc12 (stereo not shown) [Example 314]    7.33
COc1cc(-c2[nH]c3ccc(C4CCC(N(C)CCC#N)CC4)nc3c2C(C)C)cn2ncnc12 (stereo not shown) [Example 175]    8.70
CNC1CCC(c2ccc3[nH]c(-c4cn(CC#N)c5ncccc45)c(C(C)C)c3n2)CC1 (stereo not shown) [Example 270]    7.55
Cc1c(-c2[nH]c3ccc(N4CC(N5CCC(O)CC5)C4)nc3c2C(C)C)cn2ncnc2c1C [Example 40]    8.77

For every item in the list below, what is its measured pIC50?
1. COc1cc(-c2[nH]c3cc(C)c(C4CCC(N(C)CCC#N)CC4)nc3c2C(C)C)cn2ncnc12 (stereo not shown) [Example 340]
2. CCN(C)C1CCC(c2ccc3[nH]c(-c4cn5ncnc5c(C)c4C)c(C(C)C)c3n2)CC1 (stereo not shown) [Example 388]
3. Cc1c(-c2[nH]c3ccc(C4CCC(N(C)CC(=O)N(C)C)CC4)nc3c2C(C)C)cn2ncnc2c1C (stereo not shown) [Example 368]
4. CC(C)c1c(-c2cc(CO)c3ncnn3c2)[nH]c2ccc(C3CCC(NC4COC4)CC3)nc12 (stereo not shown) [Example 215]

Key:
[7.29, 8.66, 8.60, 8.12]

----------
- TEST_SYSTEM: human TLR9 (Homo sapiens (Human), UniProt Q9NR96)
- Sequence (Q9NR96 26-1032): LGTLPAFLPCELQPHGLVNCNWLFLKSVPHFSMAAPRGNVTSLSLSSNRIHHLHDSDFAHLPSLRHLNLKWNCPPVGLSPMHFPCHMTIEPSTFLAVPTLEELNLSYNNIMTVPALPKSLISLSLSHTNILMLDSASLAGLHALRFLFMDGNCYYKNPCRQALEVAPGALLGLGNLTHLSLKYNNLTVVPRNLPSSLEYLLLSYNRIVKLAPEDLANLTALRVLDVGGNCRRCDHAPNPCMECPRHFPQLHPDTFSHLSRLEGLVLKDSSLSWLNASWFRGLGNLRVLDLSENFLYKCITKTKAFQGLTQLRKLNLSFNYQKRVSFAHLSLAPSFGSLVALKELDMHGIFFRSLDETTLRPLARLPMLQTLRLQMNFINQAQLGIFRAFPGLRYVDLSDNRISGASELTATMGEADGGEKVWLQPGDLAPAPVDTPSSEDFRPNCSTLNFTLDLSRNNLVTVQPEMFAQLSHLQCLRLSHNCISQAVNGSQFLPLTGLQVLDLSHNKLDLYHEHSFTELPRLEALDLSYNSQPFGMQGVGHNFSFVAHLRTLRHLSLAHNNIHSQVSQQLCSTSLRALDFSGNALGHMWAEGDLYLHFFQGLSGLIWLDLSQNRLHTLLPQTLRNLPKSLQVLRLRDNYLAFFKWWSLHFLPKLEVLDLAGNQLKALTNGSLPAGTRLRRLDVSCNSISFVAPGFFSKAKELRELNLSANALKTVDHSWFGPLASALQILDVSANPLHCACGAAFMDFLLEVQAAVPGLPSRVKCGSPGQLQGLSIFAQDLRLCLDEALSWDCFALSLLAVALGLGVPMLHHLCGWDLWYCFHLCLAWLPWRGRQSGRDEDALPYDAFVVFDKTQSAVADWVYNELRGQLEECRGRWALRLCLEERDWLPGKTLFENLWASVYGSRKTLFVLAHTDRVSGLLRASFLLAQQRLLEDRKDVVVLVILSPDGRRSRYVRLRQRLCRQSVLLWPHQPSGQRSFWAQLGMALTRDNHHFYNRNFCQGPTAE
- TEST_DESCRIPTION: TLR9 inhibition reporter assay (HEK-Blue SEAP)
- MEASUREMENT_SETUP: read-out: TLR9 IC50; HEK-Blue cells overexpressing human TLR9, SEAP reporter, ODN2006 5 nM
OBSERVATION_TYPE: IC50 (µM)
Give bare numbers, in µM.

Cc1c(-c2[nH]c3ccc(C4CCN(C5COC5)CC4)nc3c2C(C)C)cn2ncnc2c1C    8.18
Cc1c(-c2[nH]c3ccc(C4CC5(C4)CN(C(=O)CCN(C)C)C5)nc3c2C(C)C)cn2ncnc2c1C    3.11
Cc1c(-c2[nH]c3ccc(N4CC5(CN(C)C5)C4)nc3c2C(C)C)cn2ncnc2c1C    3.03
Cc1cc(-c2[nH]c3ccc(C4CCN(C5CCN(C)C5=O)CC4)nc3c2C(C)C)cn2ncnc12 (stereo not shown)    5.65
CC(=O)N(C)C1CCC(c2ccc3[nH]c(-c4cn5ncnc5c(C)c4C)c(C(C)C)c3n2)CC1 (stereo not shown) [Example 439]    24.2

For every item in the list below, what is its measured IC50?
1. COc1cc(-c2[nH]c3cc(F)c(C4CCN(C5COC5)CC4)nc3c2C(C)C)cn2ncnc12
2. COc1cc(-c2[nH]c3ccc(OCC4CCN(CCS(C)(=O)=O)CC4)nc3c2C(C)C)cn2ncnc12

Key:
11.9
5.91

----------
Provide the recorded IC50 for the entries that follow.
- TEST_SYSTEM: human TLR7 (Homo sapiens (Human), UniProt Q9NYK1)
- Sequence (Q9NYK1 27-1049): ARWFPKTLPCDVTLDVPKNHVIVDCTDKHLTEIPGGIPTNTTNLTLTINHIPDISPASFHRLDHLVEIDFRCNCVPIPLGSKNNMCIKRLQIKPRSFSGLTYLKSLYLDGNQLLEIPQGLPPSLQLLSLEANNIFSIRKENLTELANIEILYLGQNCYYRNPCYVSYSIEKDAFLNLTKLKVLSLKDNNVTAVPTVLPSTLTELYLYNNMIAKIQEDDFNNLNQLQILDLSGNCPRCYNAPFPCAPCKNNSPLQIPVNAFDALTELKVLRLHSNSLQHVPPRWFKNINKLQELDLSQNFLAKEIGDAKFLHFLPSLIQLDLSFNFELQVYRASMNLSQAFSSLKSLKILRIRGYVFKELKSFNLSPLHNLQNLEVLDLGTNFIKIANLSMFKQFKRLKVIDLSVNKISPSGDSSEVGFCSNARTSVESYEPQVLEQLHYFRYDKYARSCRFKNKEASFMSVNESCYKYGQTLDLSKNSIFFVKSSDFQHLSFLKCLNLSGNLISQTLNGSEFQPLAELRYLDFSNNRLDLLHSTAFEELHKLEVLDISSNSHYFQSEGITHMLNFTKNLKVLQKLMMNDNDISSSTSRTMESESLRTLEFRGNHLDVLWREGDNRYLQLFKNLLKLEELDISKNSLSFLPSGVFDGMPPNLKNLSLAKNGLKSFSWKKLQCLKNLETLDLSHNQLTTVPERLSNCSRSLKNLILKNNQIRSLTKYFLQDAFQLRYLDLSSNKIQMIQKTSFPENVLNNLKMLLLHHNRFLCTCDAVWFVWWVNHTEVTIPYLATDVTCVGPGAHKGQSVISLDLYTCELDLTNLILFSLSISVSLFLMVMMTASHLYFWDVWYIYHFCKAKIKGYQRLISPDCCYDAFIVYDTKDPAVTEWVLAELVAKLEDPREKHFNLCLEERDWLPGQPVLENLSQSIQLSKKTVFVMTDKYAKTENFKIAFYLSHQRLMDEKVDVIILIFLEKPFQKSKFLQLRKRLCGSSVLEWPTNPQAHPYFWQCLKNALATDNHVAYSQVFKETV
- TEST_DESCRIPTION: TLR7 inhibition reporter assay (HEK-Blue SEAP)
- Assay type: cell-based
- MEASUREMENT_SETUP: HEK-Blue cells overexpressing human TLR7, SEAP reporter, gardiquimod 7.5 μM

Here are 3 molecules together with their reported answers.
Cc1c(-c2[nH]c3ccc(C4CCN(CC(C)(C)O)CC4)nc3c2C(C)C)cn2ncnc2c1C    1.2 nM
CNC(=O)CN(C)C1CCC(c2ccc3[nH]c(-c4cn5ncnc5c(C)c4C)c(C(C)C)c3n2)CC1 (stereo not shown) [Example 400]    0.74 nM
Cc1c(-c2[nH]c3ccc(CCC4CN(CCS(C)(=O)=O)C4)nc3c2C(C)C)cn2ncnc2c1C    42 nM

The record that follows has no IC50 shown yet.
Exercise: Data request, read-out IC50, for CCN(CC(=O)N(C)C)C1CCC(c2nc3c(C(C)C)c(-c4cn5ncnc5c(C)c4C)[nH]c3cc2F)CC1 (stereo not shown) [Example 509]
Key: 17 nM

----------
- TEST_SYSTEM: human TLR8 (Homo sapiens (Human), UniProt Q9NR97)
- Sequence (Q9NR97 27-1041): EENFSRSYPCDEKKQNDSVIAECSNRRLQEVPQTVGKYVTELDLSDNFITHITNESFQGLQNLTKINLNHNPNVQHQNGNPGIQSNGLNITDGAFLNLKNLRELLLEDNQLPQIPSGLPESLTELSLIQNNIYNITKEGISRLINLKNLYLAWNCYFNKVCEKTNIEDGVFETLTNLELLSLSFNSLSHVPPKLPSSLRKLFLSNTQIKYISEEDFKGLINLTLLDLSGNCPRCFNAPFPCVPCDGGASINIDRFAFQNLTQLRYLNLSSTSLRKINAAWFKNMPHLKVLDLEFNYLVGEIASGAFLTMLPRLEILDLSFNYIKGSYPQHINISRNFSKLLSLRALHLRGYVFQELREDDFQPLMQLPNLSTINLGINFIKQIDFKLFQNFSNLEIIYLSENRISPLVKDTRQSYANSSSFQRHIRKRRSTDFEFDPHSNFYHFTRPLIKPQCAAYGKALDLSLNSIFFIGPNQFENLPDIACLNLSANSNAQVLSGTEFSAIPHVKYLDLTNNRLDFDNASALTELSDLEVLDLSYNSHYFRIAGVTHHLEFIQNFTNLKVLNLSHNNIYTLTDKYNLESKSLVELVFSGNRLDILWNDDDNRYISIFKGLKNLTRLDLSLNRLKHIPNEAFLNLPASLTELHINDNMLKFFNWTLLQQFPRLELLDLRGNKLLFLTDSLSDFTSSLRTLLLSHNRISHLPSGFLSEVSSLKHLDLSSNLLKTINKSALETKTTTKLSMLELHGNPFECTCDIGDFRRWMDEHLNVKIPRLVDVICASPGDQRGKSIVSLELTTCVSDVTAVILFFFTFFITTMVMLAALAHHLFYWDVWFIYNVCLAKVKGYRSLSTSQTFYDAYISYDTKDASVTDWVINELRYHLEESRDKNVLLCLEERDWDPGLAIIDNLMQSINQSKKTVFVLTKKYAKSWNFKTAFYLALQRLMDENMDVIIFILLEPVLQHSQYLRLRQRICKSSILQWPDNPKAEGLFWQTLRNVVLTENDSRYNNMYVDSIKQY
- TEST_DESCRIPTION: TLR8 inhibition reporter assay (HEK-Blue SEAP)
- MEASUREMENT_SETUP: read-out: TLR8 IC50; HEK-Blue cells overexpressing human TLR8, R848 15.9 μM stimulation, SEAP reporter
OBSERVATION_TYPE: pIC50
Give bare numbers, as −log10 of the molar value.

Cc1c(-c2[nH]c3ccc(N4CC(NCC(=O)N(C)C)C4)nc3c2C(C)C)cn2ncnc2c1C [Example 26]    5.67
Cc1c(-c2[nH]c3ccc(N4CC5(CCN(CC(=O)N(C)C)CC5)C4)nc3c2C(C)C)cn2ncnc2c1C [Example 44]    7.82
Cc1c(-c2[nH]c3ccc(N4CCC(N)CC4)nc3c2C(C)C)cn2ncnc2c1C [Example 50]    9.41

Exercise: Data request, read-out pIC50, for CNC1CCC(c2ccc3[nH]c(-c4cn(CCS(C)(=O)=O)c5ncccc45)c(C(C)C)c3n2)CC1 (stereo not shown) [Example 269]
Key: 7.06

----------
- TEST_SYSTEM: human TLR9 (Homo sapiens (Human), UniProt Q9NR96)
- TEST_DESCRIPTION: TLR9 inhibition reporter assay (HEK-Blue SEAP);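 further: SEAP driven by an IFN-β minimal promoter with NF-κB and AP-1 sites, read after 22 h, compounds dosed 0.05 nM–50 µM, inhibition scaled between agonist plus DMSO and reference-inhibitor wells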
- MEASUREMENT_SETUP: read-out: TLR9 IC50; HEK-Blue cells overexpressing human TLR9, SEAP reporter, ODN2006 5 nM
Classes are defined on IC50 with ranges low (below 2 µM), medium (2 µM to below 5 µM), high (5 µM or more)

Worked cases, answers included:
COc1cc(-c2[nH]c3cc(F)c(C4CCNCC4)nc3c2C(C)C)cn2ncnc12    low
Cc1c(-c2[nH]c3ccc(C4CCC(N5CC6(COC6)C5)CC4)nc3c2C(C)C)cn2ncnc2c1C (stereo not drawn) [Example 437]    medium

Exercise: Into which bin does this molecule go? `COc1cc(-c2[nH]c3ccc(OC4CCN(CC(=O)N(C)C)CC4)nc3c2C(C)C)cn2ncnc12`
Key: medium

Exercise: What do you get for Cc1c(-c2[nH]c3ccc(C4CC(N(C)CC5(C)COC5)C4)nc3c2C(C)C)cn2ncnc2c1C (stereo not drawn) ?
Key: high

Exercise: What do you get for `Cc1c(-c2[nH]c3ccc(N4C[C@@H](C)N(C(=O)CN5CCCC5)C[C@@H]4C)nc3c2C(C)C)cn2ncnc2c1C` ?
Key: high

Exercise: What do you get for CCCN(CCC)C1CCC(Oc2ccc3[nH]c(-c4cc(OC)c5ncnn5c4)c(C(C)C)c3n2)CC1 (stereo not drawn) ?
Key: low

----------
- TEST_SYSTEM: human TLR9 (Homo sapiens (Human))
- TEST_DESCRIPTION: TLR9 inhibition reporter assay (HEK-Blue SEAP)
- MEASUREMENT_SETUP: read-out: TLR9 IC50; HEK-Blue cells overexpressing human TLR9, SEAP reporter, ODN2006 5 nM
pIC50: −log10 of the molar value.
# label = rule met if pIC50 >= 6 else rule not met

Worked cases, answers included:
COc1cc(-c2[nH]c3ccc(C4CCC(NC(C)C5CC5)C4)nc3c2C(C)C)cn2ncnc12 (centres unmarked) [Example 724]    rule not met
Cc1c(-c2[nH]c3ccc(C4CCC(N5CCCC5)CC4)nc3c2C(C)C)cn2ncnc2c1C (centres unmarked) [Example 407]    rule not met
COc1cc(-c2[nH]c3cc(F)c(C4CCN(CC(=O)N(C)C)CC4)nc3c2C(C)C)cn2ncnc12 [Example 583]    rule not met
Cc1c(-c2[nH]c3ccc(CCC4CN(CC5(C)COC5)C4)nc3c2C(C)C)cn2ncnc2c1C [Example 702]    rule not met

Exercise: Answer whether pIC50 of COc1cc(-c2[nH]c3ccc(C4CC(NC5CCOCC5)C4)nc3c2C(C)C)cn2ncnc12 (centres unmarked) [Example 632] is greater than or equal to 6.
Key: rule met
